Test system: Escherichia coli ATCC 25922
assay-summary: Minimal Inhibitory Concentration (MIC) determination, broth microdilution (CLSI M07-A10)
Assay type: cell-based
condition-set: Escherichia coli, ATCC25922, strain Escherichia coli ATCC 25922, 18-24 hours at 35±2° C., lowest concentration for complete growth inhibition (no visible growth), read-out: Escherichia coli growth inhibition MIC
measurement-type: MIC (µg/mL)

The following compounds have reported results that may help.
INSERT INTO assay_data (compound, tested_on, meas_value) VALUES
  ('NCCn1nnc2cc(F)c3c(c21)CC(CN1CCC2(CC1)CN(c1cnc4c(n1)NC(=O)CO4)C(=O)O2)C3 (stereo not drawn)', 'Escherichia coli ATCC 25922', 0.25),
  ('C[C@H](C(=O)NCCn1nnc2c(F)c3c(c(F)c21)CC(CN1CCC2(CC1)CN(c1cnc4c(n1)NC(=O)CO4)C(=O)O2)C3)N(C)C (stereo partly drawn)', 'Escherichia coli ATCC 25922', 1),
  ('CN(C)Cc1nc2c(F)c3c(c(F)c2[nH]1)CC(CN1CCC2(CC1)CN(c1cnc4c(n1)NC(=O)CO4)C(=O)O2)C3', 'Escherichia coli ATCC 25922', 0.25);

[a] C[C@H](C(=O)NCc1nc2cc3c(c(F)c2[nH]1)CC(CN1CCC2(CC1)CN(c1cnc4c(n1)NC(=O)CO4)C(=O)O2)C3)N(C)C (stereo partly drawn)
[b] CN(C)CCc1nc2cc3c(c(F)c2o1)CC(CN1CCC2(CC1)CN(c1cnc4c(n1)NC(=O)CO4)C(=O)O2)C3 (stereo not drawn)
[c] O=C1COc2ncc(N3CC4(CCN(CC5Cc6cc7nc(C8CNC8)oc7c(F)c6C5)CC4)OC3=O)nc2N1 (single isomer, unassigned)
[d] CN(C)CC(=O)N(C)CCn1nc2c(F)c3c(c(F)c2n1)CC(CN1CCC2(CC1)CN(c1cnc4c(n1)NC(=O)CO4)C(=O)O2)C3
INPUT: Rank order required: MIC, descending. Rank them, then answer with their labels in that order.
OUTPUT: d, a, b, c
(d: 1 µg/mL, a: 0.5 µg/mL, b: 0.25 µg/mL, c: 0.125 µg/mL)

----------
System: Escherichia coli ATCC 25922
assay-summary: Minimal Inhibitory Concentration (MIC) determination, broth microdilution (CLSI M07-A10)
Assay type: cell-based
condition-set: Escherichia coli, ATCC25922, strain Escherichia coli ATCC 25922, 18-24 hours at 35±2° C., lowest concentration for complete growth inhibition (no visible growth), read-out: Escherichia coli growth inhibition MIC
measurement-type: MIC (µg/mL)

The following compounds have reported results that may help.
INSERT INTO results (compound, units_text, meas_value) VALUES
  ('C[C@@H](N)c1nc2cc3c(c(F)c2o1)CC(CN1CCC2(CC1)CN(c1cnc4c(n1)NC(=O)CO4)C(=O)O2)C3 (stereo partly drawn)', 'µg/mL', 0.125),
  ('O=C(O)C(F)(F)F.O=C1COc2ncc(N3CC4(CCN(CC5Cc6cc7nc(CNC(=O)[C@H]8CCCN8)[nH]c7c(F)c6C5)CC4)OC3=O)nc2N1 (stereo partly drawn)', 'µg/mL', 0.25),
  ('O=C(O)C(F)(F)F.O=C1COc2ncc(N3CC4(CCN(CC5Cc6c(c(F)c7[nH]c([C@H]8NCC[C@@H]8O)nc7c6F)C5)CC4)OC3=O)nc2N1', 'µg/mL', 0.125),
  ('CNCC(=O)NCc1nc2cc3c(c(F)c2[nH]1)CC(CN1CCC2(CC1)CN(c1cnc4c(n1)NC(=O)CO4)C(=O)O2)C3.O=C(O)C(F)(F)F (stereo not drawn)', 'µg/mL', 0.5);

[a] CC(C)(N)c1nc2c(F)c3c(c(F)c2[nH]1)CC(CN1CCC2(CC1)CN(c1cnc4c(n1)NC(=O)CO4)C(=O)O2)C3
[b] CN[C@H](C)C(=O)NCc1nc2cc3c(c(F)c2o1)CC(CN1CCC2(CC1)CN(c1cnc4c(n1)NC(=O)CO4)C(=O)O2)C3 (stereo partly drawn)
INPUT: Hi there, can you help? I need to know whether a or b has lower measured MIC. Please identify the chosen entry by its label.
OUTPUT: a

[a] CNCCc1nc2c(F)c3c(c(F)c2[nH]1)CC(CN1CCC2(CC1)CN(c1cnc4c(n1)NC(=O)CO4)C(=O)O2)C3.O=C(O)C(F)(F)F
[b] O=C1COc2ncc(N3CC4(CCN(CC5Cc6c(c(F)c7nn(C8CNC8)nc7c6F)C5)CC4)OC3=O)nc2N1.O=CO
INPUT: Among a and b , which shows a numerically higher MIC result? Please identify the chosen entry by its label.
OUTPUT: a

[A] CN[C@H](CO)c1nc2c(F)c3c(c(F)c2[nH]1)CC(CN1CCC2(CC1)CN(c1cnc4c(n1)NC(=O)CO4)C(=O)O2)C3.O=C(O)C(F)(F)F
[B] CNCCNc1cnc2c(F)c3c(c(F)c2n1)CC(CN1CCC2(CC1)CN(c1cnc4c(n1)NC(=O)CO4)C(=O)O2)C3 (stereo not drawn)
INPUT: Among A and B , which shows a numerically higher MIC result? Please identify the chosen entry by its label.
OUTPUT: B
(B: 0.5 µg/mL, A: 0.25 µg/mL)

[I] NC1(Cn2nc3c(F)c4c(c(F)c3n2)CC(CN2CCC3(CC2)CN(c2cnc5c(n2)NC(=O)CO5)C(=O)O3)C4)CC1.O=C(O)C(F)(F)F
[II] CC(=O)N(C)CCn1nc2c(F)c3c(c(F)c2n1)CC(CN1CCC2(CC1)CN(c1cnc4c(n1)NC(=O)CO4)C(=O)O2)C3
INPUT: Among I and II , which shows a numerically higher MIC result? Please identify the chosen entry by its label.
OUTPUT: II
(II: 2 µg/mL, I: 0.25 µg/mL)
